Below are pIC50 values measured for Pim 2 (Homo sapiens, UniProt Q9P1W9).
pIC50: −log10 of the molar value.
experimental endpoint: pIC50

Reference set, count: 4
> print(dat)
                                   compound                           system.name  experimental.endpoint  reported.value
1  CC(C)Oc1cc(F)c(-c2nc(C(=O)Nc3cnccc3N3C[C@@H](N)[C@H](O)[C@@H](C)C3)ccc2F)c(F)c1 [Example 93]  Pim 2 (Homo sapiens, UniProt Q9P1W9)                  pIC50            9.11
2  C[C@H]1C[C@@H](c2ccncc2NC(=O)c2ccc(F)c(-c3c(F)cc(C4CCOCC4)cc3F)n2)C[C@@H](N)[C@@H]1O [Example 94]  Pim 2 (Homo sapiens, UniProt Q9P1W9)                  pIC50            8.89
3  C[C@@H]1C[C@H](N)C[C@H](c2ccncc2NC(=O)c2nc(-c3c(F)cc(C4(O)COC4)cc3F)c(F)cc2N)C1 [Example 221]  Pim 2 (Homo sapiens, UniProt Q9P1W9)                  pIC50            9.14
4  C[C@H]1CN(c2ccncc2NC(=O)c2ccc(F)c(-c3c(F)cc([C@@H](O)CO)cc3F)n2)C[C@@H](N)[C@@H]1O [Example 234]  Pim 2 (Homo sapiens, UniProt Q9P1W9)                  pIC50            8.75

A: C[C@@H]1C[C@H](N)C[C@H](c2ccncc2NC(=O)c2ccc(F)c(-c3c(F)cc([S@@+](C)[O-])cc3F)n2)C1 [Example 228]
B: C[C@@H]1C[C@H](N)C[C@H](c2ccncc2NC(=O)c2ccc(F)c(-c3c(F)cc(OCC4CC4)cc3F)n2)C1 [Example 64]
input: Decide: A or B , by lowest recorded pIC50. Give the chosen item's label as your response.
output: A

---

# system name: Pim 2 (Homo sapiens, UniProt Q9P1W9)
# Sequence (Q9P1W9 whole entry): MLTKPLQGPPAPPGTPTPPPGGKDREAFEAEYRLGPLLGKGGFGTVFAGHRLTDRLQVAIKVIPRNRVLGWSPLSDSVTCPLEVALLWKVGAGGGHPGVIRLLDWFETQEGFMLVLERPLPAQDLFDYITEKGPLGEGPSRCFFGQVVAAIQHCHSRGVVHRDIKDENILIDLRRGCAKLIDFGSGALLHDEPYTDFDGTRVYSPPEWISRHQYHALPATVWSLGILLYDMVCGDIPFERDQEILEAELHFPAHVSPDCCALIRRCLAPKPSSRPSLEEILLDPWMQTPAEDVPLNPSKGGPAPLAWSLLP
pIC50: −log10 of the molar value.
experimental endpoint: pIC50

> print(dat)
                                   compound                           system.name  reported.value
1  C[C@H]1C[C@@H](c2ccncc2NC(=O)c2ccc(F)c(-c3c(F)cc(COC4CCOCC4)cc3F)n2)C[C@@H](N)[C@@H]1O  Pim 2 (Homo sapiens, UniProt Q9P1W9)            8.48
2  COCc1cc(F)c(-c2nc(C(=O)Nc3cnccc3[C@H]3C[C@@H](N)[C@H](O)[C@@H](C)C3)ccc2F)c(F)c1  Pim 2 (Homo sapiens, UniProt Q9P1W9)            8.40
3  C[C@@H]1C[C@H](N)C[C@H](c2ccncc2NC(=O)c2ccc(F)c(-c3c(F)cc(OC[C@@H](O)CO)cc3F)n2)C1  Pim 2 (Homo sapiens, UniProt Q9P1W9)            8.72
4  C[C@@H]1C[C@H](N)C[C@H](c2ccncc2NC(=O)c2ccc(F)c(-c3c(F)cc(C(C)(C)C#N)cc3F)n2)C1  Pim 2 (Homo sapiens, UniProt Q9P1W9)            8.67

A: CC(C)Oc1cc(F)c(-c2nc(C(=O)Nc3cnccc3[C@H]3C[C@@H](N)[C@H](O)[C@@H](C)C3)c(N)cc2F)c(F)c1
B: C[C@H]1C[C@@H](c2ccncc2NC(=O)c2ccc(F)c(-c3c(F)cc(OCC4(C#N)CCOCC4)cc3F)n2)C[C@@H](N)[C@@H]1O
C: COCCOc1ccc(F)c(-c2nc(C(=O)Nc3cnccc3[C@@H]3C[C@H](C)C[C@H](N)C3)ccc2F)c1F
input: // smallest pIC50 at index 0, largest at the end Show the ranking through the labels, in the order asked for.
output: C, B, A
(C: 8.03, B: 8.52, A: 8.81)

---

pIC50: −log10 of the molar value.
Below are pIC50 values measured for Pim 1 (Homo sapiens).
experimental endpoint: pIC50

Reference set, count: 6
> print(dat)
                                   molecule           system.name  reported.value
1  C[C@@H]1C[C@H](N)C[C@H](c2ccncc2NC(=O)c2ccc(F)c(-c3c(F)cc(C4(F)CCOCC4)cc3F)n2)C1 [Example 126]  Pim 1 (Homo sapiens)           10.70
2  CC(C)Oc1cc(F)c(-c2nc(C(=O)Nc3cnccc3[C@@H]3C[C@H](C)C[C@H](N)C3)c(N)cc2F)c(F)c1 [Example 96]  Pim 1 (Homo sapiens)           11.00
3  Cc1cc(F)c(-c2nc(C(=O)Nc3cnccc3[C@@H]3C[C@H](C)C[C@H](N)C3)c(N)cc2F)c(F)c1 [Example 222]  Pim 1 (Homo sapiens)           11.00
4  COC(C)(C)COc1cc(F)c(-c2nc(C(=O)Nc3cnccc3[C@H]3C[C@@H](N)[C@H](O)[C@@H](C)C3)ccc2F)c(F)c1 [Example 45]  Pim 1 (Homo sapiens)           10.52
5  C[C@@H]1C[C@H](N)C[C@H](c2ccncc2NC(=O)c2ccc(F)c(-c3c(F)cc(C4CCOCC4)cc3F)n2)C1 [Example 82]  Pim 1 (Homo sapiens)           11.00
6  C[C@@H]1C[C@H](N)C[C@H](c2ccncc2NC(=O)c2ccc(F)c(-c3c(F)cc(OC[C@@H](O)CO)cc3F)n2)C1 [Example 3]  Pim 1 (Homo sapiens)           10.52

P: C[C@H]1CN(c2ccncc2NC(=O)c2nc(-c3c(F)cc(C4COC4)cc3F)c(F)cc2N)C[C@@H](N)[C@@H]1O [Example 107]
Q: C[C@H]1C[C@@H](c2ccncc2NC(=O)c2ccc(F)c(-c3c(F)ccc(OCCO)c3F)n2)C[C@@H](N)[C@@H]1O [Example 30]
input: Decide: P or Q , by lowest recorded pIC50. Give the chosen item's label as your response.
output: Q

---

Below are IC50 values measured for Pim 3 (Homo sapiens).
experimental endpoint: IC50 (nM)

Reference set, count: 2
> print(dat)
                                 smiles.str           system.name  reported.value
1  C[C@@H]1C[C@H](N)C[C@H](c2ccncc2NC(=O)c2ccc(F)c(-c3c(F)cc(C(C)(C)C#N)cc3F)n2)C1  Pim 3 (Homo sapiens)            2.04
2  COCCOc1cc(F)c(-c2nc(C(=O)Nc3cnccc3N3C[C@@H](N)[C@H](O)[C@@H](C)C3)ccc2F)c(F)c1  Pim 3 (Homo sapiens)            0.45

1: C[C@H]1CN(c2ccncc2NC(=O)c2nc(-c3c(F)cc(C(C)(C)O)cc3F)c(F)cc2N)C[C@@H](N)[C@@H]1O
2: Cc1cc(F)c(-c2nc(C(=O)Nc3cnccc3[C@H]3C[C@@H](N)C[C@@H](C(C)C)C3)ccc2F)c(F)c1
3: COCCc1cc(F)c(-c2nc(C(=O)Nc3cnccc3[C@@H]3C[C@H](C)C[C@H](N)C3)ccc2F)c(F)c1
4: COC1(c2cc(F)c(-c3nc(C(=O)Nc4cnccc4N4C[C@@H](N)[C@H](O)[C@@H](C)C4)c(N)cc3F)c(F)c2)COC1
5: CCC(=O)c1cc(F)c(-c2nc(C(=O)Nc3cnccc3[C@@H]3C[C@H](C)C[C@H](N)C3)ccc2F)c(F)c1
input: // smallest IC50 at index 0, largest at the end Show the ranking through the labels, in the order asked for.
output: 1, 4, 2, 3, 5
(1: 0.13 nM, 4: 0.21 nM, 2: 0.58 nM, 3: 0.94 nM, 5: 11.4 nM)

I: C[C@H]1CN(c2ccncc2NC(=O)c2ccc(F)c(-c3c(F)cc(C4CCS(=O)(=O)CC4)cc3F)n2)C[C@@H](N)[C@@H]1O
II: COCCOc1cc(F)c(-c2nc(C(=O)Nc3cnccc3[C@@H]3C[C@H](C)C[C@H](N)C3)c(N)cc2F)c(F)c1
input: Decide: I or II , by lowest recorded IC50. Give the chosen item's label as your response.
output: I
(I: 0.14 nM, II: 0.29 nM)

A: C[C@@H]1C[C@H](N)C[C@H](c2ccncc2NC(=O)c2nc(-c3c(F)cc(C4(O)CCC4)cc3F)c(F)cc2N)C1
B: C[C@H]1C[C@@H](c2ccncc2NC(=O)c2ccc(F)c(-c3c(F)cc(OCC4CC4)cc3F)n2)C[C@@H](N)[C@@H]1O
input: Decide: A or B , by lowest recorded IC50. Give the chosen item's label as your response.
output: A

P: C[C@@H]1C[C@H](N)C[C@H](c2ccncc2NC(=O)c2ccc(F)c(-c3c(F)cc(OCC(C)(C)O)cc3F)n2)C1
Q: C[C@@H]1C[C@H](N)C[C@H](c2ccncc2NC(=O)c2ccc(F)c(-c3c(F)cc(OCCN4CCCC4=O)cc3F)n2)C1
input: Hi there! Just curious which has the higher IC50 between P and Q . Give the chosen item's label as your response.
output: Q
(Q: 1.1 nM, P: 0.72 nM)
